All figures here come from patent US8163909B2.

Test system: Aβ40 in conditioned medium of cells stably expressing Amyloid Precursor Protein (APP)
Experiment: In vitro BACE cell-based assay (Aβ40 in conditioned medium, sandwich ELISA)
Settings: HEK cell-based assay IC50; read-out: HEK cell assay
PARAMETER: pIC50
Entry type: numeric. Quantity: pIC50, the -log10 of concentration in molar units.

Exam item: // query pIC50 value for entry CC(=O)N[C@@H](Cc1ccc(F)c(-c2cscn2)c1)[C@H](O)CN[C@H]1CC2(CCC2)Oc2ccc(CC(C)(C)C)cc21 [Example 436]
Marked response: 7.62

----------
Give measured IC50 for each item. Keep answers brief.
Test system: Aβ40 in conditioned medium of cells stably expressing Amyloid Precursor Protein (APP)
Assay: In vitro BACE cell-based assay (Aβ40 in conditioned medium, sandwich ELISA);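 further: compounds added as a dilution series, secreted peptide quantified by europium time-resolved fluorescence readout, potency fitted from percent of control versus compound concentration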
Conditions: Homo sapiens, HEK293, HEK cell-based assay, IC50's in uM; read-out: HEK cell assay
Please respond with the number in µM and leave the unit unwritten.

Exam item: // query IC50 value for entry CO[C@H](C)C(=O)N[C@@H](Cc1cc(F)cc(-c2nccs2)c1)[C@H](O)CN[C@H]1CC2(CCC2)Oc2ccc(CC(C)C)cc21
Marked response: 0.052

Exam item: // query IC50 value for entry CO[C@H](C)C(=O)N[C@H](Cc1cc(F)cc(-c2nccs2)c1)[C@@H](O)CN[C@H]1CC2(CCC2)Oc2ncc(Br)cc21
Marked response: 0.558

Exam item: // query IC50 value for entry COCC(=O)N[C@@H](Cc1cccc(-c2nccs2)c1)[C@H](O)CN[C@H]1CC2(CCC2)Oc2ncc(CC(C)(C)F)cc21
Marked response: 0.014

Exam item: // query IC50 value for entry C#Cc1cccc(C[C@H](NC(=O)COC)[C@H](O)CN[C@H]2CC3(CCC3)Oc3ncc(CC)cc32)c1
Marked response: 0.065

Exam item: // query IC50 value for entry CC#Cc1cnc2c(c1)[C@@H](NC[C@@H](O)[C@H](Cc1cccc(-c3nccs3)c1)NC(=O)COC)CC1(CCC1)O2
Marked response: 0.736

Exam item: // query IC50 value for entry COCC(=O)N[C@H](Cc1cccc(-c2nccs2)c1)[C@@H](O)CN[C@H]1CC2(CCC2)Oc2ncc(C3CCCC3)cc21
Marked response: 1.34

Exam item: // query IC50 value for entry C#Cc1cc(C[C@H](NC(=O)COC)[C@H](O)CN[C@H]2CC3(CCC3)Oc3ncc(CC(C)C)cc32)ccc1F
Marked response: 0.032

Exam item: // query IC50 value for entry CCO[C@@H](C)C(=O)N[C@@H](Cc1ccc2c(c1)OCO2)[C@H](O)CN[C@H]1CC2(CCC2)Oc2ncc(CC(C)C)cc21
Marked response: 0.513

Exam item: // query IC50 value for entry C#Cc1cccc(C[C@H](NC(=O)COC)[C@H](O)CN[C@H]2C[C@@]3(CCOC3)Oc3ncc(CC(C)(C)C)cc32)c1
Marked response: 0.009

Exam item: // query IC50 value for entry C#Cc1cccc(C[C@H](NC(=O)C(OC)OC)[C@H](O)CN[C@H]2CC3(CCC3)Oc3ncc(CC(C)(C)C)cc32)c1
Marked response: 0.006

Exam item: // query IC50 value for entry COCCC(=O)N[C@@H](Cc1cccc(-c2nccs2)c1)[C@H](O)CN[C@H]1CC2(CCC2)Oc2ncc(CC(C)(C)C)cc21
Marked response: 0.012

Exam item: // query IC50 value for entry COCC(=O)N[C@@H](Cc1cccc(-c2ccccn2)c1)[C@H](O)CN[C@H]1CC2(CCC2)Oc2ncc(CC(C)(C)C)cc21
Marked response: 0.018

Exam item: // query IC50 value for entry CCOCC(=O)N[C@@H](Cc1ccc2c(c1)OCO2)[C@H](O)CN[C@H]1CC2(CCC2)Oc2ncc(CC(C)(C)C)cc21
Marked response: 0.042
